target-desc: C3b (UniProt P01024)
experiment-notes: ITC
Hi there, I'd appreciate the recorded Kd for every entry that follows.
One number for each entry, in nM.

polypeptide comprising the amino acid sequence of SEQ ID NO: 34 (designed binder) MVKVKFDATGEEKEVETSKISAVYRTGKDVLFSYDDQGKIGWGYVSEKDAPKELLDLLARAEREK: 0.7

Give one value of Kd per listed binder.
1. polypeptide comprising the amino acid sequence of SEQ ID NO: 33 (designed binder) MVKVKFAATGEEKEVETSKIANVYRVGKDVLFSYDDQGKIGWGYVSEKDAPKELLDLLARAEREK
2. polypeptide having the amino acid sequence of SEQ ID NO: 27 (designed binder) MVKVKFEATGEEKEVDTSKIYQVYRSGKEVLFTYDDNGKTGWGYVSEKDAPKELLDMLARAEREK

Output line:
1: 1.3; 2: 2.6
